Form field: melting point (one value per entry).

// known answers, use as guide
{"Compound": "CN(C)CC1CCCCN1CCCNC(=O)N1c2ccccc2C(=O)Nc2cccnc21 (stereo unspecified)", "melting point": "160 to 162 °C"}
{"Compound": "Nc1c(-c2ccc(Cl)cc2)nc2ccc(F)cc2c1C(=O)O", "melting point": "241 to 243 °C"}
{"Compound": "CCC(C(=O)N(C)C)n1cc(C(C)C)c(-c2ccccc2)n1 (stereo unspecified)", "melting point": "89 to 90 °C"}
{"Compound": "CCC=C(CCC)C(=O)O", "melting point": "38 °C"}
{"Compound": "O=C(Nc1ccc(Cl)cc1C(=O)NCc1ccc2c(c1)OCO2)Oc1ccccc1", "melting point": "149 to 150 °C"}

Q: Need melting point of `O=C(NCC(F)(F)F)NCC(F)(F)F` , thanks.
Ans: 154 to 155 °C

Q: Need melting point of CC1CC(=O)NN=C1c1ccc2c(c1)NCCO2 (stereo unspecified) , thanks.
Ans: 166 to 168 °C

Q: Need melting point of OCC1Cn2c(nc3ccccc32)-c2ccccc2O1 (stereo unspecified) , thanks.
Ans: 142 to 144 °C

Q: Need melting point of `COc1cccnc1Br` , thanks.
Ans: 34 °C

Q: Need melting point of `CN(c1cccc2cc(C(=O)O)[nH]c12)S(=O)(=O)c1ccccc1C(F)(F)F` , thanks.
Ans: 211 to 212 °C

Q: Need melting point of `CN1CCN(c2ccc(S(=O)(=O)c3ccccc3)c3ccccc23)CC1` , thanks.
Ans: 71 to 72 °C

Q: Need melting point of `Cc1c(CC(=O)NOCc2ccccc2)c2cc(OCc3nc4ccccc4s3)ccc2n1Cc1ccc(Cl)cc1` , thanks.
Ans: 183 to 186 °C

Q: Need melting point of `CN1CCc2c(O)c(F)cc3c(=O)c(C(=O)O)cn1c23` , thanks.
Ans: > 290 °C
